endpoint name: melting point

Recorded results for 4 compounds are shown here.
CCCCCNC(=O)[C@H](Cc1ccc(OCC(=O)O)c(C(=O)O)c1)NC(=O)[C@@H](Cc1ccccc1)N1CCCC1=O    96 to 97 °C
O=C(O)COc1ccc(C[C@H](NC(=O)c2ccoc2)C(=O)NCCCCc2ccccc2)cc1-c1nn[nH]n1    230 to 233 °C
CCCCCNC(=O)[C@@H](Cc1ccc(OCC(=O)O)c(C(=O)O)c1)NC(=O)Cc1ccccc1OC    146 to 148 °C
CC(C)(C)OC(=O)N[C@@H](Cc1ccccc1)C(=O)N[C@H](CO)Cc1ccc(OCC(=O)O)c(C(=O)O)c1    168.8 to 172.3 °C

Exam item: // query melting point value for entry O=C(O)COc1ccc(C[C@H](NC(=O)c2ccccc2)C(=O)NCCCCc2ccccc2)cc1-c1nn[nH]n1
Marked response: 223 to 225 °C
